Recorded values, source BigSolDB 2.1.

Settings: in chloroform, 320 K
ASSAY_METRIC: solubility (mole fraction)
Could you keep your reply to the number by itself?

Q: Which solubility (mole fraction) value belongs to CO[C@H]1C[C@@H]2CC[C@@H](C)[C@@](O)(O2)C(=O)C(=O)N2CCCC[C@H]2C(=O)O[C@H]([C@H](C)C[C@@H]2CC[C@@H](O)[C@H](OC)C2)CC(=O)[C@H](C)/C=C(\C)[C@@H](O)[C@@H](OC)C(=O)[C@H](C)C[C@H](C)/C=C/C=C/C=C/1C ?
Ans: 0.00369

###

Settings: in methanol, 295 K
ASSAY_METRIC: solubility (mole fraction)
Could you keep your reply to the number by itself?

Q: Which solubility (mole fraction) value belongs to CO[C@H]1C[C@@H]2CC[C@@H](C)[C@@](O)(O2)C(=O)C(=O)N2CCCC[C@H]2C(=O)O[C@H]([C@H](C)C[C@@H]2CC[C@@H](O)[C@H](OC)C2)CC(=O)[C@H](C)/C=C(\C)[C@@H](O)[C@@H](OC)C(=O)[C@H](C)C[C@H](C)/C=C/C=C/C=C/1C ?
Ans: 0.00072
